Recorded MIC values (Salmonella typhi) are given below.
State the result as a value with its unit after it.

# count of solved cases: 3
Molecule: COc1cc(C=C2SC(=O)NC2=O)cc(OC)c1OC
MIC: 4.2 mM
//
Molecule: COc1ccc(C=C2SC(=O)NC2=O)cc1OC
MIC: 4.7 mM
//
Molecule: O=C1NC(=O)C(=Cc2ccc([N+](=O)[O-])cc2)S1
MIC: 4.9 mM

Which MIC is listed for O=C1NC(=O)C(=Cc2ccc(Cl)cc2Cl)S1 ?
4.5 mM

Which MIC is listed for COc1ccccc1C=C1SC(=O)NC1=O ?
5.31 mM

Which MIC is listed for COc1cc(C=C2SC(=O)NC2=O)ccc1O ?
4.9 mM

Which MIC is listed for O=C1NC(=O)C(=Cc2ccc(O)cc2)S1 ?
5.65 mM

Which MIC is listed for CCOc1cc(C=C2SC(=O)NC2=O)ccc1O ?
4.7 mM
